target-or-test-system: AGTR2 (Homo sapiens, UniProt P50052)
Construct: purchased Promega (in-house HiBiT-GPCR construct library, NanoBRET)
Sequence (P50052 whole entry): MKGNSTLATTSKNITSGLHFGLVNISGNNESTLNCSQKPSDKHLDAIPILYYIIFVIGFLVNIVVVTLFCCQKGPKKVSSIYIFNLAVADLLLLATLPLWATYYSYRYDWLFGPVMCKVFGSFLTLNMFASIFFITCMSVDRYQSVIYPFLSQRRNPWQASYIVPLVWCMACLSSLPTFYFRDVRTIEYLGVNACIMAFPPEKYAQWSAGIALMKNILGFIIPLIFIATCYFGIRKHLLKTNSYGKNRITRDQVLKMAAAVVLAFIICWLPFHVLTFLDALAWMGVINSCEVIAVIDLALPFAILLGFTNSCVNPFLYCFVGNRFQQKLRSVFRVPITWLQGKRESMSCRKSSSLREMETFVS
assay-method-text: NanoBRET screen HiBiT-AGTR2 in HEK293
Type: binding
setup-conditions: AGTR2; tracer 1μM
Could you please report measured NanoBRET Fold Response for the items listed next?

Take a look at these entries with their results.
Cc1nc2n(c(=O)c1CCN1CCC(c3noc4cc(F)ccc34)CC1)CCCC2OC(=O)NCCOCCOCCOCCOCCNC(=O)CCc1ccc2n1[B-](F)(F)[N+]1=C(c3ccc[nH]3)C=CC1=C2 (stereo not drawn)
0.94
O=C(CCc1ccc2n1[B-](F)(F)[N+]1=C(c3ccc[nH]3)C=CC1=C2)NCc1ccc(C(=O)NCCOCCC(=O)N[C@@H]2CC[C@@]3(O)[C@H]4Cc5ccc(O)c6c5[C@@]3(CCN4CC3CC3)[C@H]2O6)cc1 [Naltrexone-3-NB590]
0.67

Could you now look at the following compound, please?
In plain terms, Cc1cc2c(s1)Nc1ccccc1N=C2N1CCN(CCCNC(=O)CCOCCOCCOCCOCCNC(=O)CCc2ccc3n2[B-](F)(F)[N+]2=C(c4ccc[nH]4)C=CC2=C3)CC1 has a documented NanoBRET Fold Response of 0.87

* * *

target-or-test-system: ADRA1B (Homo sapiens, UniProt P35368)
Construct: purchased Promega (in-house HiBiT-GPCR construct library, NanoBRET)
Sequence (P35368 whole entry): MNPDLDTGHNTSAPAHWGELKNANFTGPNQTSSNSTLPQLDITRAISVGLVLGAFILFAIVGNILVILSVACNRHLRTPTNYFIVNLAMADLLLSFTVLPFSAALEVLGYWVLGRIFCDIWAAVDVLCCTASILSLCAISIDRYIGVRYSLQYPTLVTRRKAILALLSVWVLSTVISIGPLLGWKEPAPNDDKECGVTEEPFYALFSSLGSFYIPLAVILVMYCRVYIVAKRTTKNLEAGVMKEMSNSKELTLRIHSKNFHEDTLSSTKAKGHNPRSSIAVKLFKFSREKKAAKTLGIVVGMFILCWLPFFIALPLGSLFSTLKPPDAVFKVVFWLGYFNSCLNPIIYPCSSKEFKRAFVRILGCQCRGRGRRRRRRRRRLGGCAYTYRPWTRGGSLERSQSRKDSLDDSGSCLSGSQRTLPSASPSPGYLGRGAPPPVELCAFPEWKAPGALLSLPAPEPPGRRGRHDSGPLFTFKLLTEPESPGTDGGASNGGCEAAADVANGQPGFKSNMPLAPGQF
assay-method-text: NanoBRET screen HiBiT-ADRA1B in HEK293
Type: binding
setup-conditions: ADRA1B; tracer 0.1μM
Exercise: state measured NanoBRET Fold Response for each of the molecules provided.
One number for each entry.

Field: example entries. Status: answers known.
COc1ccccc1N1CCN(CCCCN2C(=O)c3ccc(CNC(=O)CCOCCNC(=O)c4ccc(CNC(=O)CCc5ccc6n5[B-](F)(F)[N+]5=C(c7ccc[nH]7)C=CC5=C6)cc4)cc3C2=O)CC1
1.70
O=C(CCOCCOCCOCCOCCNC(=O)CCc1ccc2n1[B-](F)(F)[N+]1=C(c3ccc[nH]3)C=CC1=C2)NCCCN1CCN(C2=Nc3ccccc3Oc3ccc(Cl)cc32)CC1
1.78

Value of measured NanoBRET Fold Response for the entry CC(C)N(CC[C@H](c1ccccc1)c1cc(CCNC(=O)c2ccc(CNC(=O)CCc3ccc4n3[B-](F)(F)[N+]3=C(c5ccc[nH]5)C=CC3=C4)cc2)ccc1O)C(C)C : 1.17

* * *

target-or-test-system: GALR2 (Homo sapiens)
Construct: purchased Promega (in-house HiBiT-GPCR construct library, NanoBRET)
Sequence (O43603 whole entry): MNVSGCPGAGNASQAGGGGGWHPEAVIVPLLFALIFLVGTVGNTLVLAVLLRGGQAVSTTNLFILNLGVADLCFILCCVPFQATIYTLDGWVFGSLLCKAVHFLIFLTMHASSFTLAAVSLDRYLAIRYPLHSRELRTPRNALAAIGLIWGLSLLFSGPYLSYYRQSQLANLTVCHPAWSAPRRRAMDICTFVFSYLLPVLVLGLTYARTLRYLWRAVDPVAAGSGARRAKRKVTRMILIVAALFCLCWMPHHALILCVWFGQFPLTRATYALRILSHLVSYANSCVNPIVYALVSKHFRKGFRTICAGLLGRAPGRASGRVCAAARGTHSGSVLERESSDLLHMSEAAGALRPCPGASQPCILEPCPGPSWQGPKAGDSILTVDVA
assay-method-text: NanoBRET screen HiBiT-GALR2 in HEK293
Assay type: binding
setup-conditions: GALR2; tracer 1μM
Classify by measured NanoBRET Fold Response: Met if it is equal to or exceeds 1, Not met if it is smaller.

O=C(CCOCCOCCOCCOCCNC(=O)CCc1ccc2n1[B-](F)(F)[N+]1=C(c3ccc[nH]3)C=CC1=C2)NCCCN1CCN(C2=Nc3ccccc3Oc3ccc(Cl)cc32)CC1
Met
Cc1cc2c(s1)Nc1ccccc1N=C2N1CCN(CCCNC(=O)CCOCCOCCOCCOCCNC(=O)CCc2ccc3n2[B-](F)(F)[N+]2=C(c4ccc[nH]4)C=CC2=C3)CC1
Met
O=C(CCc1ccc2n1[B-](F)(F)[N+]1=C(c3ccc[nH]3)C=CC1=C2)NCCOCCOCCNC(=O)OCCOCCN1CCN(C2=Nc3ccccc3Sc3ccccc32)CC1
Not met

[in] Say whether CC(C)N(CC[C@H](c1ccccc1)c1cc(CCNC(=O)c2ccc(CNC(=O)CCc3ccc4n3[B-](F)(F)[N+]3=C(c5ccc[nH]5)C=CC3=C4)cc2)ccc1O)C(C)C shows NanoBRET Fold Response of 1 or more.
[out] Met

The origin of these recorded values is paper PMC8151276.
